Test: Kinetic inertness: acid-assisted dechelation in excess HCl
Assay type: physicochemical
Settings: Figure 2A; 6.0 M HCl, 80 °C
Measurement type: half-life (h)

Recorded results for 5 molecules are shown here.
INSERT INTO results (record_smiles, unit_of_measurement, measured_number) VALUES
  ('O=C([O-])CN1CCN2CCN(CC(=O)[O-])CCN(CC1)Cc1cccc(n1)-c1cnnn1Cc1cc(-c3ccccc3)cc(n1)C2.[Ho+3]', 'h', 68.2),
  ('O=C([O-])CN1CCN2CCN(CC(=O)[O-])CCN(CC1)Cc1cccc(n1)-c1cnnn1Cc1cc(-c3ccccc3)cc(n1)C2.[Er+3]', 'h', 343),
  ('O=C([O-])CN1CCN2CCN(CC(=O)[O-])CCN(CC1)Cc1cccc(n1)-c1cnnn1Cc1cc(-c3ccccc3)cc(n1)C2.[Gd+3]', 'h', 0.17),
  ('O=C([O-])CN1CCN2CCN(CC(=O)[O-])CCN(CC1)Cc1cccc(n1)-c1cnnn1Cc1cc(-c3ccccc3)cc(n1)C2.[Tm+3]', 'h', 1360),
  ('O=C([O-])CN1CCN2CCN(CC(=O)[O-])CCN(CC1)Cc1cccc(n1)-c1cnnn1Cc1cc(-c3ccccc3)cc(n1)C2.[Lu+3]', 'h', 25300);

1. O=C([O-])CN1CCN2CCN(CC(=O)[O-])CCN(CC1)Cc1cccc(n1)-c1cnnn1Cc1cc(-c3ccccc3)cc(n1)C2.[Dy+3]
2. O=C([O-])CN1CCN2CCN(CC(=O)[O-])CCN(CC1)Cc1cccc(n1)-c1cnnn1Cc1cc(-c3ccccc3)cc(n1)C2.[Tb+3]
Q: Which value of half-life is greater, the one for 1 or the one for 2 ? Returns: label corresponding to the selected item.
Result: 1
(1: 12 h, 2: 2.1 h)

---

Test: Kinetic inertness: acid-assisted dechelation in excess HCl
Format: physicochemical
Settings: Figure 2A; 0.1 M HCl, 80 °C
Measurement type: half-life, h

INSERT INTO results (record_smiles, measurement_type, result) VALUES
  ('O=C([O-])CN1CCN2CCN(CC(=O)[O-])CCN(CC1)Cc1cccc(n1)-c1cnnn1Cc1cc(-c3ccccc3)cc(n1)C2.[Ho+3]', 'half-life, h', 'too stable'),
  ('O=C([O-])CN1CCN2CCN(CC(=O)[O-])CCN(CC1)Cc1cccc(n1)-c1cnnn1Cc1cc(-c3ccccc3)cc(n1)C2.[Lu+3]', 'half-life, h', 'too stable'),
  ('O=C([O-])CN1CCN2CCN(CC(=O)[O-])CCN(CC1)Cc1cccc(n1)-c1cnnn1Cc1cc(-c3ccccc3)cc(n1)C2.[Yb+3]', 'half-life, h', 'too stable'),
  ('O=C([O-])CN1CCN2CCN(CC(=O)[O-])CCN(CC1)Cc1cccc(n1)-c1cnnn1Cc1cc(-c3ccccc3)cc(n1)C2.[La+3]', 'half-life, h', 'too unstable'),
  ('O=C([O-])CN1CCN2CCN(CC(=O)[O-])CCN(CC1)Cc1cccc(n1)-c1cnnn1Cc1cc(-c3ccccc3)cc(n1)C2.[Ce+3]', 'half-life, h', 'too unstable');

Q: What does the data say about its half-life, h? Entry: O=C([O-])CN1CCN2CCN(CC(=O)[O-])CCN(CC1)Cc1cccc(n1)-c1cnnn1Cc1cc(-c3ccccc3)cc(n1)C2.[Tm+3]
Result: too stable

Q: What does the data say about its half-life, h? Entry: O=C([O-])CN1CCN2CCN(CC(=O)[O-])CCN(CC1)Cc1cccc(n1)-c1cnnn1Cc1cc(-c3ccccc3)cc(n1)C2.[Er+3]
Result: too stable

---

Test: Kinetic inertness: acid-assisted dechelation in excess HCl
Type: physicochemical
Details: section above Supp. Fig 16, head with acid, temperature and time not given
Measurement type: abundance of intact chelate (%)

Recorded results for 6 compounds are shown here.
INSERT INTO results (compound, measurement_type, measured_number) VALUES
  ('O=C([O-])CN1CCN2CCN(CC(=O)[O-])CCN(CC1)Cc1cccc(n1)-c1cnnn1Cc1cc(-c3ccccc3)cc(n1)C2.[Tm+3] [Ph{Tm}]', 'abundance of intact chelate', 100.0),
  ('O=C([O-])CN1CCN2CCN(CC(=O)[O-])CCN(CC1)Cc1cccc(n1)-c1cnnn1Cc1cc(-c3ccccc3)cc(n1)C2.[Ho+3] [Ph{Ho}]', 'abundance of intact chelate', 100.0),
  ('O=C([O-])CN1CCN2CCN(CC(=O)[O-])CCN(CC1)Cc1cccc(n1)-c1cn(nn1)Cc1cc(-c3ccccc3)cc(n1)C2.[Lu+3] [1,4-cz-[Lu(PhL1)]]', 'abundance of intact chelate', 98.7),
  ('O=C([O-])CN1CCN2CCN(CC(=O)[O-])CCN(CC1)Cc1cccc(n1)-c1cnnn1Cc1cc(-c3ccccc3)cc(n1)C2.[Y+3] [Ph{Y}]', 'abundance of intact chelate', 100.0),
  ('O=C([O-])CN1CCN2CCN(CC(=O)[O-])CCN(CC1)Cc1cccc(n1)-c1cnnn1Cc1cc(-c3ccccc3)cc(n1)C2.[Er+3] [Ph{Er}]', 'abundance of intact chelate', 100.0),
  ('O=C([O-])CN1CCN2CCN(CC(=O)[O-])CCN(CC1)Cc1cccc(n1)-c1cnnn1Cc1cc(-c3ccccc3)cc(n1)C2.[Dy+3] [Ph{Dy}]', 'abundance of intact chelate', 100.0);

A. O=C([O-])CN1CCN2CCN(CC(=O)[O-])CCN(CC1)Cc1cccc(n1)-c1cnnn1Cc1cc(-c3ccccc3)cc(n1)C2.[Lu+3] [Ph{Lu}]
B. O=C([O-])CN1CCN2CCN(CC(=O)[O-])CCN(CC1)Cc1cccc(n1)-c1cnnn1Cc1cc(-c3ccccc3)cc(n1)C2.[Ca+2] [Ph{Ca}]
Q: Which value of abundance of intact chelate is greater, the one for A or the one for B ? Returns: label corresponding to the selected item.
Result: A
(A: 100.0%, B: 38.9%)

---

Test: Kinetic inertness: acid-assisted dechelation in excess HCl
Type: physicochemical
Conditions: Figure 2A; 0.1 M HCl, 80 °C
Measurement type: half-life (days)

P. O=C([O-])CN1CCN2CCN(CC(=O)[O-])CCN(CC1)Cc1cccc(n1)-c1cnnn1Cc1cc(-c3ccccc3)cc(n1)C2.[Dy+3] [Ph{Dy}]
Q. O=C([O-])CN1CCN2CCN(CC(=O)[O-])CCN(CC1)Cc1cccc(n1)-c1cnnn1Cc1cc(-c3ccccc3)cc(n1)C2.[Nd+3] [Ph{Nd}]
Q: Which value of half-life is greater, the one for P or the one for Q ? Returns: label corresponding to the selected item.
Result: P
(P: 3960 days, Q: 0.106 days)

A. O=C([O-])CN1CCN2CCN(CC(=O)[O-])CCN(CC1)Cc1cccc(n1)-c1cnnn1Cc1cc(-c3ccccc3)cc(n1)C2.[Sm+3] [Ph{Sm}]
B. O=C([O-])CN1CCN2CCN(CC(=O)[O-])CCN(CC1)Cc1cccc(n1)-c1cnnn1Cc1cc(-c3ccccc3)cc(n1)C2.[Gd+3] [Ph{Gd}]
C. O=C([O-])CN1CCN2CCN(CC(=O)[O-])CCN(CC1)Cc1cccc(n1)-c1cnnn1Cc1cc(-c3ccccc3)cc(n1)C2.[Pr+3] [Ph{Pr}]
D. O=C([O-])CN1CCN2CCN(CC(=O)[O-])CCN(CC1)Cc1cccc(n1)-c1cnnn1Cc1cc(-c3ccccc3)cc(n1)C2.[Eu+3] [Ph{Eu}]
Q: // sort entries: half-life, high to low Reply format: the labels, ordered as requested.
Result: B, D, A, C

---

Assay: Kinetic inertness: acid-assisted dechelation in excess HCl
Type: physicochemical
Settings: Figure 2A; 0.1 M HCl, 25 °C
Measurement type: half-life, h

INSERT INTO results (record_smiles, result) VALUES
  ('O=C([O-])CN1CCN2CCN(CC(=O)[O-])CCN(CC1)Cc1cccc(n1)-c1cnnn1Cc1cc(-c3ccccc3)cc(n1)C2.[Lu+3]', 'too stable'),
  ('O=C([O-])CN1CCN2CCN(CC(=O)[O-])CCN(CC1)Cc1cccc(n1)-c1cnnn1Cc1cc(-c3ccccc3)cc(n1)C2.[Eu+3]', 'too stable'),
  ('O=C([O-])CN1CCN2CCN(CC(=O)[O-])CCN(CC1)Cc1cccc(n1)-c1cnnn1Cc1cc(-c3ccccc3)cc(n1)C2.[Tb+3]', 'too stable');

---

Test: Kinetic inertness: acid-assisted dechelation in excess HCl
Format: physicochemical
Details: Figure 2A; 6.0 M HCl, 80 °C
Measurement type: half-life, h

INSERT INTO results (record_smiles, result) VALUES
  ('O=C([O-])CN1CCN2CCN(CC(=O)[O-])CCN(CC1)Cc1cccc(n1)-c1cnnn1Cc1cc(-c3ccccc3)cc(n1)C2.[Sm+3]', 'too unstable'),
  ('O=C([O-])CN1CCN2CCN(CC(=O)[O-])CCN(CC1)Cc1cccc(n1)-c1cnnn1Cc1cc(-c3ccccc3)cc(n1)C2.[Nd+3]', 'too unstable'),
  ('O=C([O-])CN1CCN2CCN(CC(=O)[O-])CCN(CC1)Cc1cccc(n1)-c1cnnn1Cc1cc(-c3ccccc3)cc(n1)C2.[Eu+3]', 'too unstable');
